Listing: viability, T/C of selected molecules
Test system: 931267-113-T-J1-PDC multicell spheroid viability;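 further: viability read 7 days after compound addition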
test.description: Anticancer human tumor 931267-113-T-J1-PDC patient-derived colon adenocarcinoma cell line growth inhibition [PI3K]
cond: compound 3.16 µM; stronger effect = lower value

Reference set (3 entries):
>  <molecule>
C#Cc1c(F)ccc2cc(O)cc(-c3ncc4c(N5CC6CCC(C5)N6)nc(OCC56CCCN5CC(F)C6)nc4c3F)c12 (stereo unspecified)

>  <system>
931267-113-T-J1-PDC multicell spheroid viability;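 further: viability read 7 days after compound addition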

>  <viability, T/C>
36.2% [middle of 4 runs]

$$$$
>  <molecule>
Cn1nccc1Nc1nccc(-c2ccn(C(CO)c3ccc(Cl)c(F)c3)c(=O)c2)n1 (stereo unspecified)

>  <system>
931267-113-T-J1-PDC multicell spheroid viability;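 further: viability read 7 days after compound addition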

>  <viability, T/C>
67.2% [middle of 4 runs]

$$$$
>  <molecule>
Cn1ncc(Cl)c1-c1cc(C(=O)NC(CN)Cc2cccc(F)c2)sc1Cl (stereo unspecified)

>  <system>
931267-113-T-J1-PDC multicell spheroid viability;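 further: viability read 7 days after compound addition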

>  <viability, T/C>
77.1% [middle of 4 runs]

$$$$

# input Determine its reported viability, T/C: Cc1nc(NC(=O)N2CCCC2C(N)=O)sc1-c1ccnc(C(C)(C)C(F)(F)F)c1 (stereo unspecified)
# output 74.6% [middle of 7 runs]

# input Return viability, T/C for the following molecule: CC(Nc1ncnc2nc[nH]c12)c1cc2cccc(Cl)c2c(=O)n1-c1ccccc1 (stereo unspecified)
# output 99.7% [middle of 8 runs]

# input Tell me measured viability, T/C for CC(C)NCC(C(=O)N1CCN(c2ncnc3c2C(C)CC3O)CC1)c1ccc(Cl)cc1 (stereo unspecified) please.
# output 89.5% [middle of 4 runs]
